- Species on record: Rattus norvegicus
- Experiment: DrugMatrix - Regimen: Daily Repeat
- Type: toxicity, organism-based, Sprague-Dawley
- Parameters: regimen Daily Repeat, gender Male, age 6-8 weeks
- Condition Notes: in vivo, po, 0 mg/kg, 120 h, tissue Plasma, route oral GAVAGE, dose level Control, time 5 day, vehicle 100 % WATER
List of CHOLESTEROL values.

# Molecule, CHOLESTEROL
rows = [
    ("CN1[C@@H]2CC[C@H]1C[C@@H](OC(=O)C(CO)c1ccccc1)C2 (stereo not given in full)", "67.5 mg/dL"),
    ("CCN(CC)CCNC(=O)c1cc(S(C)(=O)=O)ccc1OC [TIAPRIDE]", "68 mg/dL"),
    ("Cn1c(=O)c2[nH]cnc2n(C)c1=O.O", "78.5 mg/dL"),
    ("CC(C)NCC(O)c1ccc(NS(C)(=O)=O)cc1 (stereo not given)", "77 mg/dL"),
    ("CS(=O)(=O)c1ccc([C@@H](O)[C@@H](CO)NC(=O)C(Cl)Cl)cc1", "68 mg/dL"),
    ("CN(C)CC[C@@H](c1ccc(Cl)cc1)c1ccccn1", "72.17 mg/dL"),
    ("O.O.O.O.O.O.[Cl-].[Cl-].[Sr+2] [STRONTIUM CHLORIDE HEXAHYDRATE]", "68 mg/dL"),
    ("Oc1cccc(O)c1O", "65.5 mg/dL"),
    ("NNc1nncc2ccccc12 [HYDRALAZINE]", "82.5 mg/dL"),
    ("CC(C)(C)CC(C)(C)c1ccc(OCCOCC[N+](C)(C)Cc2ccccc2)cc1.[Cl-] [BENZETHONIUM CHLORIDE]", "82.5 mg/dL"),
]

Taken from ChEMBL document CHEMBL3885881.
